Each recorded value in this set is attributed to patent US5985836A.

- Tgt: A1PI (Homo sapiens)
- Construct: Human plasma is currently the only approved source of therapeutic AlPI
- Procedure text: A1PI purification from 5 mg hSA + 1 mg A1PI on peptide column, A1PI mass balance
- Type: binding
- Test conditions: A1PI; 5 mg hSA + 1 mg A1PI, 4° C.; * Below detection limit
Ends that are not written are not given here.
Lab note: cut-off is 0.06 mg. Strictly less in Mass Protein per Eluate Fraction, Flow is rule met. Exactly 0.06 mg or more is rule not met.

Before answering, review these 7 worked examples.
# Substance, Class
measured = [
    ("WKLWRW", "rule not met"),
    ("VIWLVR", "rule not met"),
    ("RLWRYG", "rule met"),
    ("RAFWYI", "rule not met"),
    ("IIWLYK", "rule not met"),
    ("RFIYYT", "rule met"),
    ("PYWIVR", "rule not met"),
]

Then there is this substance:
For `IWRKYS` , is the recorded Mass Protein per Eluate Fraction, Flow below the cut-off of 0.06 mg? rule met

---

- Tgt: A1PI (Homo sapiens, UniProt P01009)
- Construct: Human plasma is currently the only approved source of therapeutic AlPI
- Sequence (P01009 25-418): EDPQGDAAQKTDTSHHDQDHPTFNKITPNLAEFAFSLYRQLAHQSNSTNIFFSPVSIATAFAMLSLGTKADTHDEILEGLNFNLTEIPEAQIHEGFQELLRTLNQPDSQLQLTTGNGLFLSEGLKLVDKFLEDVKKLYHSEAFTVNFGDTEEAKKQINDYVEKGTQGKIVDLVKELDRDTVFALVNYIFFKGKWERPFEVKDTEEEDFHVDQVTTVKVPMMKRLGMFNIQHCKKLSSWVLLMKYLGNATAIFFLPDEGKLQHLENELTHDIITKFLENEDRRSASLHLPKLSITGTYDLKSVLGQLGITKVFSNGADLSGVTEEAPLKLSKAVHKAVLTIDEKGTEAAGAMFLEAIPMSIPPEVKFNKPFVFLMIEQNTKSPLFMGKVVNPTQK
- Procedure text: A1PI binding on peptide-resin column, injection of 1 mg A1PI in equilibration buffer
- Test conditions: 1 mg A1PI in equilibration buffer, 20° C.
Ends that are not written are not given here.
# binarize Percent A1PI Eluted by Fraction, 2% Acetic Acid: threshold 10% inclusive, high side criterion met, low side criterion not met

# Substance, Class
data = [
    ("WIKWTK", "criterion not met"),
    ("RFIYYT", "criterion met"),
    ("WSSKRY", "criterion not met"),
    ("IIe Lys Arg Tyr Tyr Leu (IKRYYL)", "criterion not met"),
    ("ARWYIH", "criterion met"),
]

Could you tell me if the measured Percent A1PI Eluted by Fraction, 2% Acetic Acid of `RLWRYG` reaches 10% or more? criterion met

Could you tell me if the measured Percent A1PI Eluted by Fraction, 2% Acetic Acid of `IWRKYS` reaches 10% or more? criterion met

---

Listed below: % of Total A1PI Eluted by Fraction (Based on Absorbance at 280 nm), 1M NaCl values for each entry.
- Tgt: A1PI (Homo sapiens)
- Construct: Human plasma is currently the only approved source of therapeutic AlPI
- Procedure text: A1PI binding on peptide-resin column, injection of 1 mg A1PI in equilibration buffer
- Test conditions: VIFLVR point mutations; 1 mg A1PI, 4° C.
Ends that are not written are not given here.
Report as a plain number; the unit % is understood.

# Substance, Tgt, Result unit, Result
measured = [
    ("R I F L V R: point mutation of VIFLVR, position 1 (RIFLVR)", "A1PI (Homo sapiens)", "%", 0),
    ("V I F A V R: point mutation of VIFLVR, position 4 (VIFAVR)", "A1PI (Homo sapiens)", "%", 46),
    ("Ac-V I F L V R: N-terminal acetylated sequence Ac-VIFLVR (listed under SEQ ID No:37) (not fully specified (C-terminus); printed as Ac-VIFLVR)", "A1PI (Homo sapiens)", "%", 2),
    ("H I F L V R: point mutation of VIFLVR, position 1 (HIFLVR)", "A1PI (Homo sapiens)", "%", 3),
    ("V A F L V R: point mutation of VIFLVR, position 2 (VAFLVR)", "A1PI (Homo sapiens)", "%", 55),
    ("S I F L V R: point mutation of VIFLVR, position 1 (SIFLVR)", "A1PI (Homo sapiens)", "%", 7),
    ("N I F L V R: point mutation of VIFLVR, position 1 (NIFLVR)", "A1PI (Homo sapiens)", "%", 25),
]

What the record says about D I F L V R: point mutation of VIFLVR, position 1 (DIFLVR) : % of Total A1PI Eluted by Fraction (Based on Absorbance at 280 nm), 1M NaCl is 6

---

- Tgt: A1PI (Homo sapiens)
- Construct: Human plasma is currently the only approved source of therapeutic AlPI
- Procedure text: A1PI binding on peptide-resin column, injection of 1 mg A1PI in equilibration buffer
- Test conditions: sequence order; 1 mg AlPI, 20° C.
Ends that are not written are not given here.
Quantity kind: Percent AlPI Eluted by Fraction, 2% Acetic Acid (%)
Report as a plain number; the unit % is understood.

# Substance, Result unit, Result
rows = [
    ("Ac-RVLFIV: N-terminal acetylated Ac-RVLFIV (listed under SEQ ID No:61)", "%", 50),
    ("RVLFIH: reversed sequence of VIFLVR with C-terminal His", "%", 97),
    ("RVLFIV: reversed sequence of VIFLVR", "%", 90),
]

Shifting focus to the substance that follows.
What the record says about `VIFLVR` : Percent AlPI Eluted by Fraction, 2% Acetic Acid is 93

---

Listed below: Percent Eluted by Fraction, 2% Acetic Acid values for each entry.
- Tgt: A1PI (Homo sapiens, UniProt P01009)
- Construct: Human plasma is currently the only approved source of therapeutic AlPI
- Procedure text: A1PI yield from dialyzed (aqueous) Effluent II+III
- Format: binding
- Test conditions: A1PI; 1 ml dialyzed Eff. II+III, 4° C.
Ends that are not written are not given here.
Report as a plain number; the unit % is understood.

Answered cases to consult:
# Substance, Result unit, Result
records = [
    ("ARWYIH", "%", 32),
    ("IIWLYK", "%", 60),
    ("RYRIFI", "%", 41),
    ("VIWLVR", "%", 37),
    ("VIFLVR", "%", 51),
]

What the record says about VIYLVR: VIWLVR with Trp at position 3 replaced by Tyr : Percent Eluted by Fraction, 2% Acetic Acid is 22

---

- Tgt: A1PI (Homo sapiens, UniProt P01009)
- Construct: Human plasma is currently the only approved source of therapeutic AlPI
- Procedure text: Purification of A1PI from Effluent II+III on peptide column, A1PI mass balance
- Format: binding
- Test conditions: Table 13; 1 ml Eff. II+III, 4° C.; * Below detection limit
- Experimental: Sequences 1-11 and 15 were assayed with Effluent II+III (Eff. II+III). Eff. II+III is a process intermediate in the Cohn plasma fractionation process. The feed stream contains 20% (by volume) ethanol, 20-25 mg/ml hSA and approximately 1 mg/ml AlPI. […]
Ends that are not written are not given here.
Listed below: Mass A1PI per Eluate Fraction, 1M NaCl values for each entry.
Report as a plain number; the unit mg is understood.

Answered cases to consult:
# Substance, Result
rows = [
    ("K I F L V R: point mutation of VIFLVR, position 1 (KIFLVR)", 0.03),
    ("S I F L V R: point mutation of VIFLVR, position 1 (SIFLVR)", 0.04),
    ("H I F L V R: point mutation of VIFLVR, position 1 (HIFLVR)", 0.08),
    ("A I F L V R: point mutation of VIFLVR, position 1 (AIFLVR)", 0.07),
]

What the record says about `VIFLVR` : Mass A1PI per Eluate Fraction, 1M NaCl is 0.07

---

- Tgt: A1PI (Homo sapiens)
- Construct: Human plasma is currently the only approved source of therapeutic AlPI
- Procedure text: A1PI binding on peptide-resin column, injection of 1 mg A1PI in equilibration buffer
- Test conditions: VIFLVR point mutations; 1 mg A1PI, 4° C.
Ends that are not written are not given here.
Lab note: cut-off is 4%. Strictly less in % of Total A1PI Eluted by Fraction (Based on Absorbance at 280 nm), 1M NaCl is condition met. Exactly 4% or more is condition not met.

Before answering, review these 5 worked examples.
# Substance, Class
data = [
    ("V H F L V R: point mutation of VIFLVR, position 2 (VHFLVR)", "condition not met"),
    ("V I F L F R: point mutation of VIFLVR, position 5 (VIFLFR)", "condition met"),
    ("VIFLVR", "condition met"),
    ("V R F L V R: point mutation of VIFLVR, position 2 (VRFLVR)", "condition not met"),
    ("K I F L V R: point mutation of VIFLVR, position 1 (KIFLVR)", "condition met"),
]

For V I F L A R: point mutation of VIFLVR, position 5 (VIFLAR) , is the recorded % of Total A1PI Eluted by Fraction (Based on Absorbance at 280 nm), 1M NaCl below the cut-off of 4%? condition not met

For V K F L V R: point mutation of VIFLVR, position 2 (VKFLVR) , is the recorded % of Total A1PI Eluted by Fraction (Based on Absorbance at 280 nm), 1M NaCl below the cut-off of 4%? condition not met

For VIFLVA: point mutation of VIFLVR, position 6, C-terminal Arg replaced with Ala , is the recorded % of Total A1PI Eluted by Fraction (Based on Absorbance at 280 nm), 1M NaCl below the cut-off of 4%? condition met
